Cited source for all entries: patent US10233173B2

TARGET_ENTITY: human GluN1/GluN2B NMDA receptors (Homo sapiens, UniProt Q05586+Q13224)
Sequence (Q13224 27-1484, other chains not shown): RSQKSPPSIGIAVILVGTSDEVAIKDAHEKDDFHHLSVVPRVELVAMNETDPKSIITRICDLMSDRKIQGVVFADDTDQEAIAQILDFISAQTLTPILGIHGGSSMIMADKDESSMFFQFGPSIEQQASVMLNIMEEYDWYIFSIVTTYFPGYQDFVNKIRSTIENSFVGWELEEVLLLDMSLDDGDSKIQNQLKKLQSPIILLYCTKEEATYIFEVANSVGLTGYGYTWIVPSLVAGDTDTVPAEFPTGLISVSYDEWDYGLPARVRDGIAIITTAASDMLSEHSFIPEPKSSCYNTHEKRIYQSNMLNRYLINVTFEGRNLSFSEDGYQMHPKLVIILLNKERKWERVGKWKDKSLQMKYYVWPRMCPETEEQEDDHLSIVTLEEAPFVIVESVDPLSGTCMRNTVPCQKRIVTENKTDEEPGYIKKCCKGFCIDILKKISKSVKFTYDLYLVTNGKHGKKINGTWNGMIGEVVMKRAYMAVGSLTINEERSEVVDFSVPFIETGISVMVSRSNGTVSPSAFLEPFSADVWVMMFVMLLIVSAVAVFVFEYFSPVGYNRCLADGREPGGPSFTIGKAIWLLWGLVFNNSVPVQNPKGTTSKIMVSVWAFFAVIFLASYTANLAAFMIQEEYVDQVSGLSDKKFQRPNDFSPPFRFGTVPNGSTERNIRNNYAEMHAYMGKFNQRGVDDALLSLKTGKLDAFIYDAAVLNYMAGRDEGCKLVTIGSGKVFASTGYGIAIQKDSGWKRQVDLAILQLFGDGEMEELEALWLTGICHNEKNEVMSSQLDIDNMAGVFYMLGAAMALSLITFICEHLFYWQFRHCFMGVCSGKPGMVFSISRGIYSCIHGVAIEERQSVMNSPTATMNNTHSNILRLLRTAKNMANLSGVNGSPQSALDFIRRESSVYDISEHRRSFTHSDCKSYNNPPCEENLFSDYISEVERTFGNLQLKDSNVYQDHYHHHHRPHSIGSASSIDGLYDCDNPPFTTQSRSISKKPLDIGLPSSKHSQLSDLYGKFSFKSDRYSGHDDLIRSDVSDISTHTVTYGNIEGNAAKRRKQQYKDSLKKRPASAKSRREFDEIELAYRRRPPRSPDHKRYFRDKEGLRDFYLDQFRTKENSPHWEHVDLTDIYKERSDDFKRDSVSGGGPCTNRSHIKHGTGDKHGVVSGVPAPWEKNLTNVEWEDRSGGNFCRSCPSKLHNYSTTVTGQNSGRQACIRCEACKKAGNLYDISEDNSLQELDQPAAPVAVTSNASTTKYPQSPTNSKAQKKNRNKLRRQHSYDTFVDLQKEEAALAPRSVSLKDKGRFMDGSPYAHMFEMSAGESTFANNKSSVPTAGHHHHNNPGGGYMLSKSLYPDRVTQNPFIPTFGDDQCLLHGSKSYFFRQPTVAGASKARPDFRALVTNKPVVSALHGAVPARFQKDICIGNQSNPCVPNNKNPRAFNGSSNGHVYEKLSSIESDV
METHOD: Cell-based calcium flux (FLIPR) assay on cloned human NR1/NR2B ion channels expressed in mammalian cells
EXPERIMENTAL_PARAMETERS: standard assay; glutamate at ~EC80; FLIPR calcium flux
Mark T only when IC50 stays strictly below 0.03 µM. Values equal to the cut-off are F.

Record excerpt, results attached:
• CNC(=O)c1cnc(OCc2cn(-c3ccc(F)c(C(F)F)c3)nn2)nc1 = F
• Cc1ccc(-n2cc(COc3ncc(C)c(N)n3)nn2)cc1OC(F)F = T
• CNc1nc(OCc2cn(-c3ccc(F)c(C(F)(F)F)c3)nn2)ncc1F = F
• CC(F)(F)c1cc(-n2cc(COc3nccc(CO)n3)nn2)ccc1F = T
• Fc1ccc(-n2cc(COc3ncc(C(F)(F)F)cn3)nn2)c(F)c1C(F)F = F
• COc1ccnc(OCc2cn(-c3ccc(F)c(C(F)(F)F)c3)nn2)n1 = F
• Fc1ccc(-n2cc(COc3ncc(C(F)F)cn3)nn2)cc1C(F)(F)F = T
• CNc1ccnc(OCc2cn(-c3ccc(F)c(C(C)(F)F)c3)nn2)n1 = F

Turning to the following molecule.
### Prompt Determine if `Fc1ccc(-n2cc(COc3nccc(-c4ccc[nH]4)n3)nn2)cc1OC(F)F` shows IC50 strictly lower than 0.03 µM.
### Response F

----------
TARGET_ENTITY: human GluN1/GluN2B NMDA receptors (Homo sapiens, UniProt Q05586+Q13224)
METHOD: Cell-based calcium flux (FLIPR) assay on cloned human NR1/NR2B ion channels expressed in mammalian cells
EXPERIMENTAL_PARAMETERS: standard assay; glutamate at ~EC80; FLIPR calcium flux
Description: Effects of Test Articles on Cloned Human NR1/NR2B Ion Channels Expressed in Mammalian Cells NMDA receptors are ion channels that are highly permeable to Ca^2+ ions, rendering it possible to monitor NMDA receptor function using cell-based calcium flux assay. […] The time course of the changes in intracellular calcium is measured using a fluorescent dye and a FLIPR (Fluorometric Imaging Plate Reader) device. […]
OUTCOME_MEASURE: log10(IC50) (log10 of the value in µM)
A value of 2 here means IC50 of 100 in µM, since values are log10.

Below are worked cases with known answers.
• CCNc1ccnc(OCc2cn(-c3ccc(F)c(OC(F)F)c3)nn2)n1 [Example 504] = -2.15
• COC(C)(C)c1cnc(OCc2cn(-c3ccc(F)c(C(F)(F)F)c3)nn2)nc1 [Example 436] = 0.51
• Fc1ccc(-n2cc(COc3nccc(-n4cccn4)n3)nn2)cc1C(F)F [Example 699] = -0.41
• COCc1ccnc(OCc2cn(-c3ccc(F)c(C(F)F)c3)nn2)n1 [Example 399] = -1.64
• Fc1ccc(-n2cc(COc3nccc(NC4COC4)n3)nn2)cc1OC(F)F [Example 671] = -0.90

Dear colleague, could you send me log10(IC50) for each of the items below? Thanks.
1. Fc1ccc(-n2cc(COc3nccc(NC4CC4)n3)nn2)cc1C(F)F [Example 690]
2. Cc1nc(OCc2cn(-c3ccc(F)c(C(C)(F)F)c3)nn2)ncc1F [Example 575]
3. CCNc1ccnc(OCc2cn(-c3ccc(F)c(C(F)F)c3)nn2)n1 [Example 691]
4. Cc1cccc(OCc2cn(-c3ccc(F)c(C(F)(F)F)c3)nn2)n1 [Example 430]

### Response
1: -2.10; 2: -2.22; 3: -2.22; 4: -0.96
